Origin of measurements: the Kinase Knowledgebase extract (Sharma et al. 2016)

# maps each entry to its IC50
SYSTEM TESTED: UniProt P00533
Sequence (P00533 whole entry, looked up): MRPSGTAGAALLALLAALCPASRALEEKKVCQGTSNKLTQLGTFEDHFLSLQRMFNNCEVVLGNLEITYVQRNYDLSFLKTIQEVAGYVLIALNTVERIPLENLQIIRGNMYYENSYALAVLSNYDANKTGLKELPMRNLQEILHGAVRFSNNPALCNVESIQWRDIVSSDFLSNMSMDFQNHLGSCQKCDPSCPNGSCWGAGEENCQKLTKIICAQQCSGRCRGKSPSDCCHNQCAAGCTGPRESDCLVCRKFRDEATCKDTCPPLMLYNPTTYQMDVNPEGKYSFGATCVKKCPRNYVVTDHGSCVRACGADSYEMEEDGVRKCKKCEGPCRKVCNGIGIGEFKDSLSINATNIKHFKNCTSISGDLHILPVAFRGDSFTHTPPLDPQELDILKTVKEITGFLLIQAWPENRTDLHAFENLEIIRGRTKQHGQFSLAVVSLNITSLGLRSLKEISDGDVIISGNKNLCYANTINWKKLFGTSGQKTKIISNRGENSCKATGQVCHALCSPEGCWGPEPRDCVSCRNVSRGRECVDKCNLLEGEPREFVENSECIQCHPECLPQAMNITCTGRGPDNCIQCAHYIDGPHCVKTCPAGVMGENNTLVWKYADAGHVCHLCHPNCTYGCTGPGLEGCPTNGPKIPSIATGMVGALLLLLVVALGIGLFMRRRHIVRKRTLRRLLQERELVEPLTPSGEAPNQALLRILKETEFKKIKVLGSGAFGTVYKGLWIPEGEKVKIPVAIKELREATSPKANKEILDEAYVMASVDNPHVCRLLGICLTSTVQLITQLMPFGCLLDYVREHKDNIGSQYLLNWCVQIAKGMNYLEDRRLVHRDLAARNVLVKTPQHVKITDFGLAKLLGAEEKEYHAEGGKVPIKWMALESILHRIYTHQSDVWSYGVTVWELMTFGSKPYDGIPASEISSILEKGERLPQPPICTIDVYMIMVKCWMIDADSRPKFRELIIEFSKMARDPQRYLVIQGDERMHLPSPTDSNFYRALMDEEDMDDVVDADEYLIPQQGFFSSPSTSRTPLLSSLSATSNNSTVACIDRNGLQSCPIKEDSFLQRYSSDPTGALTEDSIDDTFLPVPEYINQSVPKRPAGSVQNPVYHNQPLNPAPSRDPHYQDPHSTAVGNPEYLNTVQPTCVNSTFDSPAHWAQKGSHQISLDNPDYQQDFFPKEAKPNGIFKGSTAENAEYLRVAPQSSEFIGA

Previously resolved entries follow.
For COc1cc(Nc2ncnc(Nc3cnc4ccccc4c3)n2)cc(OC)c1OC the compound record lists IC50 as 0.4 to 2.4 µg/mL

For COc1cc(Nc2ncnc(Nc3ccc(NC(=O)OC(C)(C)C)cc3)n2)cc(OC)c1OC the compound record lists IC50 as > 4.5 µg/mL

For COc1cc(Nc2ncnc(N3CCCCC3)n2)cc(OC)c1OC the compound record lists IC50 as > 4.5 µg/mL

For COc1cc(Nc2ncnc(-c3ccncc3)n2)cc(OC)c1OC the compound record lists IC50 as > 4.5 µg/mL

Continue with the compound presented below.
For COc1cc(Nc2ncnc(-n3cc(CC(N)=O)c4ccccc43)n2)cc(OC)c1OC the compound record lists IC50 as > 4.5 µg/mL
